# Tested on: HT-29 (colon carcinoma)
# protocolText: MTS cell viability assay, HT-29
# Type: cell-based
# statedConditions: Homo sapiens, 72 h
The threshold is 8 µg/mL. Values of IC50 beneath it are tagged class 1; values meeting or exceeding it are tagged class 0.

1) C=C(C)[C@@H]1CC[C@]2(COC(=O)COC)CC[C@]3(C)[C@H](CC[C@@H]4[C@@]5(C)CC[C@H](OC(C)=O)C(C)(C)[C@@H]5CC[C@]43C)[C@@H]12 [Compound 19]; class 0
2) CC(C)[C@@H]1CC[C@]2(COC(=O)CBr)CC[C@]3(C)[C@H](CC[C@@H]4[C@@]5(C)Cc6cnoc6C(C)(C)[C@@H]5CC[C@]43C)[C@@H]12 [Compound 50]; class 0
3) C=C(C)[C@@H]1CC[C@]2(CNCCO)CC[C@]3(C)[C@H](CC[C@@H]4[C@@]5(C)CC[C@H](O)C(C)(C)[C@@H]5CC[C@]43C)[C@@H]12 [Compound 69]; class 1
4) C=C(C)[C@@H]1CC[C@]2(CNCC(=O)OC)CC[C@]3(C)[C@H](CC[C@@H]4[C@@]5(C)CC[C@H](OC(C)=O)C(C)(C)[C@@H]5CC[C@]43C)[C@@H]12 [Compound 72]; class 0
5) C=C(C)[C@@H]1CC[C@]2(C(=O)O)CC[C@]3(C)[C@H](CC[C@@H]4[C@@]5(C)CC[C@H](NCCc6ccc(O)cc6)C(C)(C)[C@@H]5CC[C@]43C)[C@@H]12 [Compound 82]; class 1
6) C=C(C)[C@@H]1CC[C@]2(C=O)CC[C@]3(C)[C@H](CC[C@@H]4[C@@]5(C)CCC(=O)C(C)(C)[C@@H]5CC[C@]43C)[C@@H]12 [Compound 66]; class 0
7) C=C(C)[C@@H]1CC[C@]2(CNCCCl)CC[C@]3(C)[C@H](CC[C@@H]4[C@@]5(C)CC[C@H](O)C(C)(C)[C@@H]5CC[C@]43C)[C@@H]12 [Compound 70]; class 0
8) C=C(C)[C@@H]1CC[C@]2(C(=O)O)CC[C@]3(C)[C@H](CC[C@@H]4[C@@]5(C)CCC(NCCO)C(C)(C)[C@@H]5CC[C@]43C)[C@@H]12 (stereo partly drawn) [Compound 77]; class 0

* * *

Listing of entries alongside the reported IC50.
# System: A-375 (melanoma)
# protocolText: MTS cell viability assay, A-375
# Format: cell-based
# statedConditions: Homo sapiens, 72 h
parameter: IC50 (µg/mL)

1. C=C(C)[C@@H]1CC[C@]2(CNCCO)CC[C@]3(C)[C@H](CC[C@@H]4[C@@]5(C)CC[C@H](O)C(C)(C)[C@@H]5CC[C@]43C)[C@@H]12 [Compound 69]; 4
2. C=C(C)[C@@H]1CC[C@]2(COC(=O)COCC)CC[C@]3(C)[C@H](CC[C@@H]4[C@@]5(C)C=C(C#N)C(=O)C(C)(C)[C@@H]5CC[C@]43C)[C@@H]12 [Compound 40]; 6
3. C=C(C)[C@@H]1CC[C@]2(COC(=O)CBr)CC[C@]3(C)[C@H](CC[C@@H]4[C@@]5(C)CC[C@H](O)C(C)(C)[C@@H]5CC[C@]43C)[C@@H]12 [Compound 13]; 29
4. C=C(C)[C@@H]1CC[C@]2(CNCC(=O)OC)CC[C@]3(C)[C@H](CC[C@@H]4[C@@]5(C)CC[C@H](OC(C)=O)C(C)(C)[C@@H]5CC[C@]43C)[C@@H]12 [Compound 72]; 6
5. C=C(C)[C@@H]1CC[C@]2(C(=O)O)CC[C@]3(C)[C@H](CC[C@@H]4[C@@]5(C)CCC(NCCO)C(C)(C)[C@@H]5CC[C@]43C)[C@@H]12 (some centres unmarked) [Compound 77]; 14
